Entry source: PubChem BioAssay (NCI)

Could you please report measured TGI for the items listed next?
# Test system: COLO 205 colon
# test_protocol: NCI tumour cell line growth inhibition, 48 h

// query Name the recorded TGI for NC(=O)c1cc([N+](=O)[O-])c(Cl)c([N+](=O)[O-])c1Cl .
// result 1.47 µM

// query Form field: reported TGI of NC(=O)c1ccccc1[N+](=O)[O-]
// result > 100 µM

// query Report TGI for O=[N+]([O-])C(/C=N/Nc1ccccc1)/C=N/Nc1ccccc1 please.
// result > 100 µM

// query Quick one: TGI for COc1ccc(/C(COc2ccc3oc(-c4ccccc4)cc(=O)c3c2)=N\O)cc1 ?
// result 19.2 µM

// query Query: TGI; subject: COc1ccccc1NC(=O)CC(=O)N1N=C(N2c3ccccc3Sc3ccccc32)CC1c1ccccc1 (centres undefined)
// result > 100 µM

// query Fill blank: measured TGI of the molecule COc1cc2c3c(n(C)c(=O)c2cc1OC)-c1cc2c(cc1/C3=C\CCCI)OCO2 is ____.
// result > 100 µM

// query Name the recorded TGI for COc1cc(/C=N/Nc2ncnc3c2cnn3-c2ccccc2)ccc1O .
// result > 25 µM

// query Can you share its TGI? I mean this molecule: CCOC(=O)C(NC(=O)c1ccccc1)(N1CCN(c2cc3c(cc2F)c(=O)c(C(=O)O)cn3CC)CC1)C(F)(F)F (centres undefined)
// result 31.1 µM

// query Would you mind telling me what TGI value was observed for O=c1[nH]cc(Cl)c(=O)[nH]1 ?
// result > 100 µM

// query Quick check: TGI of CCOP(=O)(OCC)C1CCCOC1=O (centres undefined) ?
// result > 100 µM

// query Query (molecule): c1ccc(C2OC3(CCC[C@H]4C[C@H]43)O[C@H]2c2ccccc2)cc1 (some centres undefined) ; field requested: TGI
// result 91.7 µM

// query Field request: TGI | item: N#C/C(=C/c1ccc2c(c1)OCO2)C(=O)c1ccccc1
// result > 100 µM

// query Which TGI reading was recorded for the molecule COc1ccc2c3c([nH]c2c1)CCN(CCCC(=O)c1ccc(F)cc1)C3 ?
// result 25.5 µM

// query Which TGI value is on record for COc1ccc(C/C(=C(\C)c2ccc(OCCN3CCCC3)cc2)c2ccc(OCCN3CCCC3)cc2)cc1 ?
// result 3.38 µM

// query Sample C=C/C=C/[C@@H](O)CC(=C)C[C@H]1OC2[C@H](C)[C@@H](OC(=O)C[C@H]3C[C@H](OC(C)=O)C[C@@]4(C[C@@](C)(O)C[C@H](CC(=C)[C@@H](C)[C@H](OC(C)=O)[C@H](C)C(=O)C[C@@H]5C[C@H](OC)CC6(C[C@@H](O)C[C@H](/C=C\CCC[C@H]7O[C@](O)(C=C[C@H]7C)[C@H]2O)O6)O5)O4)O3)[C@@H]1O — what was its TGI?
// result < 0.0025 µM

// query // returns reported TGI for input CC1CC/C(=C\c2ccc(F)cc2)C(=O)/C1=C/c1ccc(F)cc1 (centres undefined)
// result 18.5 µM

// query Field request: TGI | item: COc1cc(Nc2ncc(-c3ccccc3)o2)cc(OC)c1
// result > 25 µM

// query Which TGI value is on record for COc1ccc(C2C(C#N)=C(S)N(C3OC(COC(C)=O)C(OC(C)=O)C(OC(C)=O)C3OC(C)=O)C(c3ccccc3)=C2C(C)=O)cc1 (centres undefined) ?
// result > 100 µM

// query Find the recorded TGI belonging to C=C(C)COC1CCCCO1 (centres undefined) and report it.
// result > 100 µM
